measured target: Acetylcholinesterase (Mus musculus, UniProt P21836)
Sequence (P21836 whole entry): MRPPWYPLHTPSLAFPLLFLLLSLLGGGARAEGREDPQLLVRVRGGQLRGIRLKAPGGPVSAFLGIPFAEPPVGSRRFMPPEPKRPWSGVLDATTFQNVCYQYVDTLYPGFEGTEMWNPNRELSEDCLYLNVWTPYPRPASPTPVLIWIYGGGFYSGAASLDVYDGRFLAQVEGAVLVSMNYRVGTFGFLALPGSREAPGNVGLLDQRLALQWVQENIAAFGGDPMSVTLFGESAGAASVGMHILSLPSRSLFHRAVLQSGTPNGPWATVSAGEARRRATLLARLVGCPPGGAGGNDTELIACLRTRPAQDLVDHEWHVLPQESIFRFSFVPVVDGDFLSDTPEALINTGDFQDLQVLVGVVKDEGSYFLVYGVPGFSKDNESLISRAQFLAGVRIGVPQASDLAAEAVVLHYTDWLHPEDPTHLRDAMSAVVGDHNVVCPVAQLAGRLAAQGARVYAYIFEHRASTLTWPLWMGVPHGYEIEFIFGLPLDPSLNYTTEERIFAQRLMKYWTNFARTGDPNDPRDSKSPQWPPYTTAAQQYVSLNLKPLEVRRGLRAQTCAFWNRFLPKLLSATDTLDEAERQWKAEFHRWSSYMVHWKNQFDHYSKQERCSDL
reported metric: pIC50
Remember the convention: pIC50 equals -log10 of concentration in molar.

Entry under review: C=C[C@@H]1[C@H]2C=C(C)C[C@]1(NC)c1ccc(=O)[nH]c1C2 . Reported pIC50? 5.70

----------
System: Acetylcholinesterase (Homo sapiens) | Read-out: IC50
Sequence (P22303 whole entry): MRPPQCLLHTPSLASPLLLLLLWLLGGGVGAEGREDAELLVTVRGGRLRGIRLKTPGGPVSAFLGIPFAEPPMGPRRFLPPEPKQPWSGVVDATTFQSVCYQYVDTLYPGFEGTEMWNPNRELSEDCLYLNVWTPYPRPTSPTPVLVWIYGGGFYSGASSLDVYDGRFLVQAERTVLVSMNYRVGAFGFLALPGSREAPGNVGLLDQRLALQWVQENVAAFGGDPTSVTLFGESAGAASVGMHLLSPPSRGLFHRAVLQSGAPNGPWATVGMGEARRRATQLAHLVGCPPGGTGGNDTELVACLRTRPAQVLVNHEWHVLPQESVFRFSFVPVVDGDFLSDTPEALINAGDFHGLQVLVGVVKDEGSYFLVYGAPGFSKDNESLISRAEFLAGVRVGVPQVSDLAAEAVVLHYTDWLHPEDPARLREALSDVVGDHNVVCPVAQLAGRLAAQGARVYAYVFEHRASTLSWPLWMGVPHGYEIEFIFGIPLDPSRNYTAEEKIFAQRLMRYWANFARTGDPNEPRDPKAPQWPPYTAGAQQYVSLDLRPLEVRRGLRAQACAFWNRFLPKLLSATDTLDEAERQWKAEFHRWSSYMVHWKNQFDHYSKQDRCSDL
Return type: number; implicit unit µM.

Recorded results for 2 compounds are shown here.
CC1=C[C@H]2Cc3[nH]c(=O)ccc3[C@@]3(C1)[C@@H]2[C@H](Cl)CCN3C :: 20.9
C=C[C@@H]1[C@H]2C=C(C)C[C@]1(NC)c1ccc(=O)[nH]c1C2 :: 15

Given the compound CC1=C[C@H]2Cc3[nH]c(=O)ccc3[C@@]3(C1)[C@@H]2[C@H](C)CN3C , what is its reported IC50? 12.1
